# Test system: SF-295
# EXPERIMENT NOTES: NCI tumour cell line growth inhibition, 48 h
The source made the active and inactive calls. No stated cut-off is given here; in the data, active = GI50 up to about 1.1 µM and inactive = higher.
ASSAY METRIC: GI50

Query: Find the recorded GI50 belonging to CN(C)CC1CCC(CN(C)C)C(=O)C1=O (stereo unspecified) and report it.
Result: 16.6 µM (inactive)

Query: Find the recorded GI50 belonging to "CCN(CC)CCNC(=O)c1cccc2nc3ccccc3nc12" and report it.
Result: 11 µM (inactive)

Query: Find the recorded GI50 belonging to O=C(c1ccco1)C1CC(c2c(O)ccc3ccccc23)=NN1 (stereo unspecified) and report it.
Result: 11.2 µM (inactive)

Query: Find the recorded GI50 belonging to CC(O)(CNS(=O)(=O)c1ccccc1)c1ccccc1 (stereo unspecified) and report it.
Result: > 100 µM (inactive)

Query: Find the recorded GI50 belonging to BrC12c3ccccc3Sc3ccccc3C1(Br)c1ccccc12 (stereo unspecified) and report it.
Result: 23.7 µM (inactive)

Query: Find the recorded GI50 belonging to "COc1ccc(/C(Cl)=C(\C=O)c2ccc(OC)cc2)cc1" and report it.
Result: 59.8 µM (inactive)

Query: Find the recorded GI50 belonging to "C=CC1(CC/C(=C\[N+](=O)[O-])c2ccc(OC)c(OC)c2)OCC(C)(C)CO1" and report it.
Result: 18.7 µM (inactive)

Query: Find the recorded GI50 belonging to "COC(=O)c1ccccc1NC(=O)C(=O)NNC(=O)c1ccncc1" and report it.
Result: > 100 µM (inactive)

Query: Find the recorded GI50 belonging to "O=C(/C=C1\Nc2ccc([N+](=O)[O-])cc2N\C1=C/C(=O)c1ccc(F)cc1)c1ccc(F)cc1" and report it.
Result: 14.9 µM (inactive)

Query: Find the recorded GI50 belonging to "c1ccc2cc3c(NC4=NCCO4)cccc3cc2c1" and report it.
Result: > 100 µM (inactive)

Query: Find the recorded GI50 belonging to "CN1CCC(CN2c3ccccc3Sc3ccccc32)CC1" and report it.
Result: 15.8 µM (inactive)

###

Measured GI50 values are reported for all entries that follow.
# Tested on: NCI-H226
# EXPERIMENT NOTES: NCI tumour cell line growth inhibition, 48 h
The source made the active and inactive calls. Cut-off read from the data, not from the text of the source: active = GI50 up to about 1.1 µM and inactive = higher.

Worked examples follow.
INSERT INTO measurements (compound_structure, recorded_value) VALUES
  ('O=[N+]([O-])c1ccc2c(c1)OCCOCCOc1ccc([N+](=O)[O-])cc1OCCOCCO2', '> 100 µM (inactive)'),
  ('CCCCCCCCCCCCCCCCCC(=O)NCCCNCCCNC(=O)CCCCCCCCCCCCCCCCC', '> 100 µM (inactive)'),
  ('C=C1c2nc3ccccc3n2C=C(c2ccccc2)N1c1ccc(Cl)cc1', '29 µM (inactive)');

Query: Find the recorded GI50 belonging to "CC#CCCN(CC#N)Cc1ccccc1" and report it.
Result: > 100 µM (inactive)

###

Measured GI50 values are reported for all entries that follow.
# Tested on: MCF7
# EXPERIMENT NOTES: NCI tumour cell line growth inhibition, 48 h
Active and inactive are the calls of the source. No stated cut-off is given here; in the data, active = GI50 up to about 1.1 µM and inactive = higher.

Query: Find the recorded GI50 belonging to "O=C1NC(=S)N/C1=C/c1c(-c2ccccc2)[nH]c2ccccc12" and report it.
Result: 15.2 µM (inactive)

Query: Find the recorded GI50 belonging to "COC(=O)[C@@H](NC(=O)[C@H](N)Cc1ccc(N(CCCl)CCCl)cc1)C(C)C" and report it.
Result: 12.5 µM (inactive)

Query: Find the recorded GI50 belonging to COc1ccc(N[S+]([O-])c2ccc(-c3ccccc3)cc2)cc1 (stereo unspecified) and report it.
Result: > 100 µM (inactive)

Query: Find the recorded GI50 belonging to "NS(=O)(=O)c1ccc(/N=N/c2ccc(O)c(O)c2)cc1" and report it.
Result: 27.5 µM (inactive)

Query: Find the recorded GI50 belonging to "CCCN(CCCc1ccccc1)CCc1ccc2[nH]c(=S)[nH]c2c1" and report it.
Result: 28.2 µM (inactive)

Query: Find the recorded GI50 belonging to "[O-][n+]1cc(SCc2ccccc2)ncc1SCc1ccccc1" and report it.
Result: > 10 µM (inactive)

###

Measured GI50 values are reported for all entries that follow.
# Test system: TK-10
# EXPERIMENT NOTES: NCI tumour cell line growth inhibition, 48 h
Active and inactive are the calls of the source. No stated cut-off is given here; in the data, active = GI50 up to about 1.1 µM and inactive = higher.

Query: Find the recorded GI50 belonging to "CCCC(=O)OCOC(=O)N(C)/N=N/c1ccc(C(=O)OCC)cc1" and report it.
Result: 27.9 µM (inactive)

Query: Find the recorded GI50 belonging to "O=C1CCN(CCC(F)(F)C(F)(F)C(F)(F)C(F)(F)F)C(=S)N1" and report it.
Result: > 100 µM (inactive)

###

Measured GI50 values are reported for all entries that follow.
# Test system: OVCAR-8
# EXPERIMENT NOTES: NCI tumour cell line growth inhibition, 48 h
Active and inactive are the calls of the source. Cut-off read from the data, not from the text of the source: active = GI50 up to about 1.1 µM and inactive = higher.

Worked examples follow.
INSERT INTO results (compound, assay_metric, recorded_value) VALUES
  ('CC1(C)O[C@@H](CBr)C[C@H](C[C@H]2C[C@@H](O)C[C@@H](CCOCc3ccccc3)O2)O1', 'GI50', '21.5 µM (inactive)'),
  ('CCOC(=O)C(/C(=N/NC(=O)OC)C(=O)Nc1ccc(C(C)=O)cc1)c1cnc2ccccc2n1 (configuration not stated)', 'GI50', '> 100 µM (inactive)'),
  ('CCCO/S(=N\S(=O)(=O)c1ccccc1)c1ccccc1[N+](=O)[O-] (configuration not stated)', 'GI50', '> 100 µM (inactive)'),
  ('NC(Cc1ccccc1)C(=O)OCN1C(=O)C2C3C=CC(C2C1=O)C1C2C(=O)N(COC(=O)C(N)Cc4ccccc4)C(=O)C2C31 (configuration not stated)', 'GI50', '20.2 µM (inactive)'),
  ('CC(O)(CNS(=O)(=O)c1ccccc1)c1ccccc1 (configuration not stated)', 'GI50', '> 100 µM (inactive)'),
  ('CC(=O)Nc1cc(C(=O)Nc2cc(C(=O)Nc3cc(C(=O)Nc4cc(C(=O)Nc5cc(C(=O)NCCC(=O)NCCCN(C)C)n(C)c5)n(C)c4)n(C)c3)n(C)c2)n(C)c1', 'GI50', '> 100 µM (inactive)');

Now consider the entry below.
Query: Notebook: pull reported GI50 for OVCAR-8, entry "Cc1ccc(C(=C2Sc3ccccc3S2)C(=C2Sc3ccccc3S2)c2ccc(C)s2)s1"
Result: > 100 µM (inactive)

###

# Test system: NCI-H522
# EXPERIMENT NOTES: NCI tumour cell line growth inhibition, 48 h
Calls of active or inactive are those of the source. No stated cut-off is given here; in the data, active = GI50 up to about 1.1 µM and inactive = higher.
Could you please pick one outcome from this set? T (active), F (inactive)

Here's what some known entries look like.
INSERT INTO results (compound, class_label) VALUES
  ('CC(=O)N1c2ccccc2C2=NN=C(N(C)C)SC21 (configuration not stated)', 'F'),
  ('Cc1ccc(OP(=O)(Oc2ccc(C)cc2)N2C=Cc3ccccc3C2C#N)cc1 (configuration not stated)', 'F'),
  ('COCC([C@@H](O)C(O)C(=O)NCC[C@@H](C)c1nc(/C=C/CC2OC3(C[C@H](O)C2C)OC(C(C[C@H](O)C(C)[C@H](O)C(C)/C=C(C)/C(C)=C/C=C/C(C)=C/C#N)OC)[C@@H](OP(=O)(O)O)C3(C)C)co1)N(C)C (some centres not stated)', 'T');

Query: What is the recorded call for this compound in the test? COc1ccc(/C=C2\CCC(C)(CN(C)C)C2=O)cc1Br (configuration not stated)
Result: F

Query: What is the recorded call for this compound in the test? CCCCCCCCCCCCCCCC(=O)Nc1ccn(C2CC(OP(=O)(O)OCC3OC(n4cc(F)c(=O)[nH]c4=O)CC3OC(C)=O)C(CO)O2)c(=O)n1 (configuration not stated)
Result: F

Query: What is the recorded call for this compound in the test? NC(Cc1ccc(S(=O)(=O)O)cc1)C(=O)NC(CCCCNC(=O)NCCCCC(NC(=O)C(N)Cc1ccc(S(=O)(=O)O)cc1)C(=O)NC(Cc1ccc(S(=O)(=O)O)cc1)C(=O)O)C(=O)NC(Cc1ccc(S(=O)(=O)O)cc1)C(=O)O (configuration not stated)
Result: F

Query: What is the recorded call for this compound in the test? "NS(=O)(=O)c1ccc(/N=N/c2ccc(O)c(O)c2)cc1"
Result: F

Query: What is the recorded call for this compound in the test? "CN(C)c1ccc(/C=c2\c3ccccc3n3c2cc(-c2ccccc2)[n+]3C)cc1"
Result: T

Query: What is the recorded call for this compound in the test? "Oc1ccccc1/C=N/Nc1nc(N/N=C/c2ccccc2O)nc(N/N=C/c2ccccc2O)n1"
Result: F

Query: What is the recorded call for this compound in the test? "O=C1Nc2ccccc2/C1=C\c1c(-c2ccccc2)nc2n1CCS2"
Result: F

Query: What is the recorded call for this compound in the test? Nc1nc(=O)n(C2OC(CO)C(O)C2O)c2ncc(-c3ccc(-c4ccccc4)cc3)nc12 (configuration not stated)
Result: F

Query: What is the recorded call for this compound in the test? "COc1ccc(/C=C2/C[N+](C)(C)C/C(=C/c3ccc(OC)cc3)C2=O)cc1"
Result: F
